TEST DETAILS: Half life in Sprague-Dawley rat at 10 mg/kg, po measured for 24 hrs
Format: ADME, organism-based
RECORDED CONDITIONS: in vivo

| COMPOUND STRUCTURE STRING | UNIT STRING | half-life |
| --- | --- | --- |
| COc1cc2c(O[C@H]3CC[C@@H](N)CC3)ncnc2cc1OCc1cccc(Br)c1 | h | 3 |

* * *

TEST DETAILS: Cmax in Sprague-Dawley rat at 1 mg/kg, iv measured for 24 hrs
Format: ADME, organism-based
RECORDED CONDITIONS: in vivo
METRIC NAME: Cmax (ng/mL)

| COMPOUND STRUCTURE STRING | UNIT STRING | VALUE MEASURED |
| --- | --- | --- |
| COc1cc2c(O[C@H]3CC[C@@H](N)CC3)ncnc2cc1OCc1cccc(Br)c1 | ng/mL | 7280 |
